- assay name: gradient 5% acetonitrile 3 min, to 50% in 2 min, to 85% in 15 min, held 3 min, 100 µL/min
- protocol conditions: column: Zorbax Extend-C18 2.1 x 50 mm; eluents: water / acetonitrile, 0.1% formic acid
Label class 0 if RP-LC retention time falls below 700 s; label class 1 in every other case.

Study these solved cases before continuing.
Cc1ccc(NC(=O)C2CCN(S(=O)(=O)c3cc(-c4noc(C5CC5)n4)cs3)CC2)cc1	class 1
O=S(=O)(NCCCN1CCOC(c2ccccc2)C1)c1ccccc1Cl (stereo not given)	class 0
Cc1cc2c(=O)n(CC(=O)Nc3cccc(C(C)C)c3)ccc2s1	class 1

--- query ---
stdin: Does RP-LC retention time meet or surpass 700 s for CCCN1CCN(CCCNC(=O)C(C)n2c(=O)c(C(F)(F)F)nc3ccccc32)CC1 (stereo not given) ?
stdout: class 0

Values from the METLIN SMRT retention time set (Domingo-Almenara et al. 2019)
